Values compiled from paper PMC11345841.

Lab note: Ki readings collected with BTK, full length (2–659) (Homo sapiens, UniProt Q06187) for the following compounds.
Sequence (Q06187 2-659): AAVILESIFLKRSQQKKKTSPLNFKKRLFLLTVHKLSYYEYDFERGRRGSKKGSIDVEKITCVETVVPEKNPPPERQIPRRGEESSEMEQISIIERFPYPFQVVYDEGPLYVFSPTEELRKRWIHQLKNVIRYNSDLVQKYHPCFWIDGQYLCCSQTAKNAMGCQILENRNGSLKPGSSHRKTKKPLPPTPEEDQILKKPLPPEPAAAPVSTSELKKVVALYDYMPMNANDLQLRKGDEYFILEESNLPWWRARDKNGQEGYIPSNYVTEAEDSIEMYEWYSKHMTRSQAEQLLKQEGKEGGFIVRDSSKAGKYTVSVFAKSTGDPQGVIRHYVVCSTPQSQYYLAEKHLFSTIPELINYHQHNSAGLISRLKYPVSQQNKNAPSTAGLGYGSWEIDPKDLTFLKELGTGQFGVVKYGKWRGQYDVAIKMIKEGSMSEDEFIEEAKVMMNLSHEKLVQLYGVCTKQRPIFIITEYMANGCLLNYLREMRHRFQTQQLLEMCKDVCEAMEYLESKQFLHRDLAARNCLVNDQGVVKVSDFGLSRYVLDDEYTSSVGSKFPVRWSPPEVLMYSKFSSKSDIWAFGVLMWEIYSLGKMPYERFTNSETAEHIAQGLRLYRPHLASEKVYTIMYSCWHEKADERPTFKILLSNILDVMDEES
parameter.measured: Ki (nM)

>  <compound>
Cc1cnc(S(C)(=O)=O)nc1N1CCCC(n2nc(-c3ccc(Oc4ccccc4)cc3)c3c(N)ncnc32)C1 (stereo not drawn)

>  <test.result>
9.08

$$$$
>  <compound>
COC(=O)c1cnc(S(C)(=O)=O)nc1N1CCCC(n2nc(-c3ccc(Oc4ccccc4)cc3)c3c(N)ncnc32)C1 (stereo not drawn)

>  <test.result>
24.2

$$$$
>  <compound>
CNC(=O)c1cnc(S(C)(=O)=O)nc1N1CCCC(n2nc(-c3ccc(Oc4ccccc4)cc3)c3c(N)ncnc32)C1 (stereo not drawn)

>  <test.result>
5.07

$$$$

* * *

test.target: EGFR (Homo sapiens, UniProt P00533)
Construct: purchased Eurofins DiscoverX KINOMEscan (scanTK)
Sequence (P00533 25-1210): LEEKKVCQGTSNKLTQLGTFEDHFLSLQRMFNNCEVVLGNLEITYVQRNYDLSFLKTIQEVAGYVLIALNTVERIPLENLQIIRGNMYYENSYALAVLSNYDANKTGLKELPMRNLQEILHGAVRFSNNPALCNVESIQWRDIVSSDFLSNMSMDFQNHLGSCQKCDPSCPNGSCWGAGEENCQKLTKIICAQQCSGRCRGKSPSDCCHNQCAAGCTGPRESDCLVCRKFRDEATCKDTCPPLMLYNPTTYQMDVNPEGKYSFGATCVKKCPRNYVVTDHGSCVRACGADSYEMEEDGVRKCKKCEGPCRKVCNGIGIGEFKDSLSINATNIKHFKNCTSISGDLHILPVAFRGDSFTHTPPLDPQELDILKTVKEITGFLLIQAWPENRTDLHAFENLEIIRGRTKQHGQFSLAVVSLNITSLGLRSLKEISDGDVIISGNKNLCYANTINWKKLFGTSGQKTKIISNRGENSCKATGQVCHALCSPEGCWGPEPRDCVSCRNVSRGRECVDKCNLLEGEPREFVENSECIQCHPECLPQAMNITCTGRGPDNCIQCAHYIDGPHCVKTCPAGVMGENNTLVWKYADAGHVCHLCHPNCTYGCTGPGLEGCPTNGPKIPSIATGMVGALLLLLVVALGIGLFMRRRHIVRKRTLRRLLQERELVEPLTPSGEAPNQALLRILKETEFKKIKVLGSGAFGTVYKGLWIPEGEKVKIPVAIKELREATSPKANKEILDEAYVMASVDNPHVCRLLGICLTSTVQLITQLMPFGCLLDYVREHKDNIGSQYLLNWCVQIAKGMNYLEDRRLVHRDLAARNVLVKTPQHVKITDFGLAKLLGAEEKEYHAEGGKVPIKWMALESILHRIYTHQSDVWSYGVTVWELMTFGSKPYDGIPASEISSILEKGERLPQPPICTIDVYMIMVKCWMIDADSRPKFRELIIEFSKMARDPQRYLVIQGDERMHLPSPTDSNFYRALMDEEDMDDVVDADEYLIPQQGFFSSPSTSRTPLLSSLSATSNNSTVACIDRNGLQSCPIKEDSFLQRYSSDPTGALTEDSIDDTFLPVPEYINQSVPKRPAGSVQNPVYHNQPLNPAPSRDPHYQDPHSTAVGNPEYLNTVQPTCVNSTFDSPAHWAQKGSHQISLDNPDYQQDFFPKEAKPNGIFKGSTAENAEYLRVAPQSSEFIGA
method: KINOMEscan ScanTK
Assay type: binding
run.conditions: EGFR; read-out: %Control @1000nM

>  <molecule>
CNC(=O)c1cnc(S(C)(=O)=O)nc1N1CCCC(n2nc(-c3ccc(Oc4ccccc4)cc3)c3c(N)ncnc32)C1 (stereo not shown)

>  <test.target>
EGFR (Homo sapiens, UniProt P00533)

>  <remaining binding at 1 µM, %>
17

$$$$
>  <molecule>
COC(=O)c1cnc(S(C)(=O)=O)nc1N1CCCC(n2nc(-c3ccc(Oc4ccccc4)cc3)c3c(N)ncnc32)C1 (stereo not shown)

>  <test.target>
EGFR (Homo sapiens, UniProt P00533)

>  <remaining binding at 1 µM, %>
33

$$$$
>  <molecule>
CCOC(=O)c1cnc(S(C)(=O)=O)nc1N1CCC[C@@H](n2nc(-c3ccc(Oc4ccccc4)cc3)c3c(N)ncnc32)C1

>  <test.target>
EGFR (Homo sapiens, UniProt P00533)

>  <remaining binding at 1 µM, %>
43

$$$$
>  <molecule>
Cc1cnc(S(C)(=O)=O)nc1N1CCCC(n2nc(-c3ccc(Oc4ccccc4)cc3)c3c(N)ncnc32)C1 (stereo not shown)

>  <test.target>
EGFR (Homo sapiens, UniProt P00533)

>  <remaining binding at 1 µM, %>
53

$$$$

* * *

test.target: SRC (Homo sapiens, UniProt P12931)
Construct: purchased Eurofins DiscoverX KINOMEscan (scanTK)
Sequence (P12931 whole entry): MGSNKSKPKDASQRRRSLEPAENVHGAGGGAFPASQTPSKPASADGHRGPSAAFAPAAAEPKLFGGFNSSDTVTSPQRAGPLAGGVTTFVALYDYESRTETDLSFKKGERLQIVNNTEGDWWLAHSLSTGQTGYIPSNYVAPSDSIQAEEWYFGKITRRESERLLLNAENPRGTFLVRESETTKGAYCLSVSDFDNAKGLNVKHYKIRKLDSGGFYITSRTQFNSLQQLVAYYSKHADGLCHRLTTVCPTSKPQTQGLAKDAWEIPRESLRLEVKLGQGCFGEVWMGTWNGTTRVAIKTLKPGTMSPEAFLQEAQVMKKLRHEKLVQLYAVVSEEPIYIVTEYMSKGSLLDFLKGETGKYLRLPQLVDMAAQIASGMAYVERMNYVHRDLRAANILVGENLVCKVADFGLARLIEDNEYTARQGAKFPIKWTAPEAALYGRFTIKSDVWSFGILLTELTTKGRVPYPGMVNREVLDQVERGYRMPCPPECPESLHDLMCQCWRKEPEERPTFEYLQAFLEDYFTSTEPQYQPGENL
method: KINOMEscan ScanTK
Format: binding
run.conditions: @1000nM, read-out: %Control
Reported remaining binding at 1 µM values are given for each entry in this list.

>  <molecule>
Cc1cnc(S(C)(=O)=O)nc1N1CCCC(n2nc(-c3ccc(Oc4ccccc4)cc3)c3c(N)ncnc32)C1 (stereo not shown)

>  <test.target>
SRC (Homo sapiens, UniProt P12931)

>  <remaining binding at 1 µM (%)>
17

$$$$
>  <molecule>
COC(=O)c1cnc(S(C)(=O)=O)nc1N1CCCC(n2nc(-c3ccc(Oc4ccccc4)cc3)c3c(N)ncnc32)C1 (stereo not shown)

>  <test.target>
SRC (Homo sapiens, UniProt P12931)

>  <remaining binding at 1 µM (%)>
60

$$$$
>  <molecule>
CCOC(=O)c1cnc(S(C)(=O)=O)nc1N1CCC[C@@H](n2nc(-c3ccc(Oc4ccccc4)cc3)c3c(N)ncnc32)C1

>  <test.target>
SRC (Homo sapiens, UniProt P12931)

>  <remaining binding at 1 µM (%)>
66

$$$$
>  <molecule>
CNC(=O)c1cnc(S(C)(=O)=O)nc1N1CCCC(n2nc(-c3ccc(Oc4ccccc4)cc3)c3c(N)ncnc32)C1 (stereo not shown)

>  <test.target>
SRC (Homo sapiens, UniProt P12931)

>  <remaining binding at 1 µM (%)>
43

$$$$
